# TEST TARGET: UniProt Q15562
# Sequence (Q15562 whole entry): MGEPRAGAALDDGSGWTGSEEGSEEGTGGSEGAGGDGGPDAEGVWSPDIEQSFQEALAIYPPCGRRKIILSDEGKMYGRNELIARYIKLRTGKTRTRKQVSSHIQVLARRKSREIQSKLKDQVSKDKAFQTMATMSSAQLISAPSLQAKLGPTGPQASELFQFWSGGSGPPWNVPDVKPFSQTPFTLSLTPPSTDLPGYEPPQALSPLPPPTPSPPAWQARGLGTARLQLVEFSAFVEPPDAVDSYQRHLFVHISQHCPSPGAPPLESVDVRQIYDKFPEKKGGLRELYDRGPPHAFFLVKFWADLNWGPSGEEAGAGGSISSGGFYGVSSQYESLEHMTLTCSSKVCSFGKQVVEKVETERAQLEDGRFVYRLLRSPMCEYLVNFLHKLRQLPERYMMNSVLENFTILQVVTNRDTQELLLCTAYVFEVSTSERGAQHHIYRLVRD
# METHOD NOTES: In vitro palmitoylation (TEAD2 autopalmitoylation, streptavidin blot)
# Format: biochemical
# ASSAY SETUP: compound at 10 μM; Table 2
Could you label it satisfied if measured inhibition at 10 µM is 80% or higher, and not satisfied otherwise?

COMPOUND: O=C(O)c1ccccc1Nc1ccc(Oc2ccc(C34CC5CC(CC(C5)C3)C4)cc2Cl)cc1
ASSIGNED LABEL: satisfied
--
COMPOUND: CN(c1ccc(N(C)c2ncccc2C(=O)O)cc1)c1ccc(C23CC4CC(CC(C4)C2)C3)cc1
ASSIGNED LABEL: satisfied
--
COMPOUND: Cc1cc(Nc2ccc(C34CC5CC(CC(C5)C3)C4)cc2)cc(Nc2ncccc2C(=O)O)c1
ASSIGNED LABEL: not satisfied
--
COMPOUND: O=C(O)c1cccnc1Nc1ccc(Nc2ccc(C34CC5CC(CC(C5)C3)C4)cc2Cl)cc1
ASSIGNED LABEL: satisfied
--
COMPOUND: CC(C)N(c1ccc(N(C)c2ccc(C34CC5CC(CC(C5)C3)C4)cc2)cc1)c1ccccc1C(=O)O
ASSIGNED LABEL: not satisfied
--
COMPOUND: O=C(Nc1ccc(C23CC4CC(CC(C4)C2)C3)cc1)c1ccc(Oc2ccccc2C(=O)O)cc1
ASSIGNED LABEL: satisfied
--
COMPOUND: CN(c1ccc(Nc2ncccc2C(=O)OCCO)cc1)c1ccc(C23CC4CC(CC(C4)C2)C3)cc1Cl
ASSIGNED LABEL: satisfied
--
COMPOUND: CN(c1cccc(Nc2ccc(C34CC5CC(CC(C5)C3)C4)cc2Cl)c1)c1ncccc1C(=O)O
ASSIGNED LABEL: satisfied
--
COMPOUND: Cc1ccc(Nc2cc(Nc3ccc(C45CC6CC(CC(C6)C4)C5)cc3)cc(C(F)(F)F)c2)c(C(=O)O)c1
ASSIGNED LABEL: not satisfied
--
COMPOUND: O=C(O)[C@@H]1CCCN1C(=O)Nc1ccc(C23CC4CC(CC(C4)C2)C3)cc1
ASSIGNED LABEL: not satisfied
--
COMPOUND: COc1ccccc1-c1ccc(Nc2ccc(Nc3ccccc3C(=O)O)cc2)c(Cl)c1
ASSIGNED LABEL: not satisfied
--
COMPOUND: O=C(O)C1CCCCC1Nc1ccc(Nc2ccc(C34CC5CC(CC(C5)C3)C4)cc2Cl)cc1 (centres unmarked)
ASSIGNED LABEL: not satisfied
--
COMPOUND: CN(C(=O)c1ccc(N(C)c2ccccc2C(=O)O)cc1)c1ccc(C23CC4CC(CC(C4)C2)C3)cc1
ASSIGNED LABEL: not satisfied
--
COMPOUND: COc1ccc(Nc2ccc(N(C)c3ccc(C45CC6CC(CC(C6)C4)C5)cc3)cc2)c(C(=O)O)c1
ASSIGNED LABEL: satisfied
--
COMPOUND: O=C(Nc1ccc(Nc2ccccc2C(=O)O)cc1)Nc1ccc(C23CC4CC(CC(C4)C2)C3)cc1
ASSIGNED LABEL: not satisfied
--
COMPOUND: O=C(NC12CC3CC(CC(C3)C1)C2)c1ccc(Nc2ccc(Nc3ncccc3C(=O)O)cc2)cc1
ASSIGNED LABEL: not satisfied
--
COMPOUND: CC(C)c1ccccc1-c1ccc(Nc2ccc(Nc3cccc(C(=O)O)n3)cc2)cc1
ASSIGNED LABEL: not satisfied
--
COMPOUND: O=C(Nc1ccc(C23CC4CC(CC(C4)C2)C3)cc1)c1ccc(C(=O)Nc2ccccc2C(=O)O)cc1
ASSIGNED LABEL: satisfied
--
COMPOUND: CCCCN(CCCC)Cc1ccc(Nc2ccc(Nc3ccccc3C(=O)O)cc2)cc1
ASSIGNED LABEL: not satisfied
--
COMPOUND: O=C(Nc1ccccc1C(=O)O)c1ccc(Oc2ccc(C34CC5CC(CC(C5)C3)C4)cc2)cc1
ASSIGNED LABEL: satisfied
--
COMPOUND: O=C(O)[C@@H]1CCCN1C(=O)Nc1ccc(Nc2ccc(C34CC5CC(CC(C5)C3)C4)cc2Cl)cc1
ASSIGNED LABEL: not satisfied
--
COMPOUND: O=C(Nc1ccc(C23CC4CC(CC(C4)C2)C3)cc1Br)c1ccc(Nc2ccccc2C(=O)O)cc1
ASSIGNED LABEL: satisfied
--
COMPOUND: COC(=O)c1ccccc1Nc1ccc(Nc2ccc(C34CC5CC(CC(C5)C3)C4)cc2)cc1
ASSIGNED LABEL: not satisfied
